Counter-ions that a name gives are not always drawn.
Record type: IC50 measurement. Applies to: IRAK1 (His-TEV-IRAK1 (194-712)) (Homo sapiens (Human))

Examples from the recorded data:
Lab request: please report IC50 under test system IRAK1 (His-TEV-IRAK1 (194-712)) (Homo sapiens (Human)) for Cn1cc(-c2cccc(-c3ncc(-c4ccn(C)n4)c(NC[C@@H](O)CO)n3)c2)cn1 [Example 83]
1 to 5 µM

Missing value: IC50, IRAK1 (His-TEV-IRAK1 (194-712)) (Homo sapiens (Human)), entry Cn1cc(-c2cccc(-c3ncc(-c4cnn(C)c4)c(NC4CCCC4)n3)c2)cn1 [Example 32] . Fill in?
0.1 to 1 µM

# query: IC50 | item Cn1cc(-c2cccc(-c3ncc(-c4ccn(C)n4)c(NC4CCC5CNCC54)n3)c2)cn1 (stereo not drawn) [Example 154] | system: IRAK1 (His-TEV-IRAK1 (194-712)) (Homo sapiens (Human))
> 5 µM

Item: Cn1cc(-c2cccc(-c3ncc(-c4cnn(C)c4)c(OCC4(C)COC4)n3)c2)cn1 [Example 9] Test system: IRAK1 (His-TEV-IRAK1 (194-712)) (Homo sapiens (Human)) Read-out: IC50 Value: ?
1 to 5 µM

// lookup IC50 | system=IRAK1 (His-TEV-IRAK1 (194-712)) (Homo sapiens (Human)) | key= Cn1cc(-c2cccc(-c3ccc(-c4cnn(C5CCNCC5)c4)cn3)c2)cn1 [Example 1, Hydrochloride]
> 5 µM

Please state recorded IC50 (tested on IRAK1 (His-TEV-IRAK1 (194-712)) (Homo sapiens (Human))) of Cn1cc(-c2cccc(-c3ncc(-c4cnn(C)c4)c(N[C@H]4CC[C@@H](N5CCOCC5)CC4)n3)c2)cn1 [Example 263]
Sequence (P51617 194-712): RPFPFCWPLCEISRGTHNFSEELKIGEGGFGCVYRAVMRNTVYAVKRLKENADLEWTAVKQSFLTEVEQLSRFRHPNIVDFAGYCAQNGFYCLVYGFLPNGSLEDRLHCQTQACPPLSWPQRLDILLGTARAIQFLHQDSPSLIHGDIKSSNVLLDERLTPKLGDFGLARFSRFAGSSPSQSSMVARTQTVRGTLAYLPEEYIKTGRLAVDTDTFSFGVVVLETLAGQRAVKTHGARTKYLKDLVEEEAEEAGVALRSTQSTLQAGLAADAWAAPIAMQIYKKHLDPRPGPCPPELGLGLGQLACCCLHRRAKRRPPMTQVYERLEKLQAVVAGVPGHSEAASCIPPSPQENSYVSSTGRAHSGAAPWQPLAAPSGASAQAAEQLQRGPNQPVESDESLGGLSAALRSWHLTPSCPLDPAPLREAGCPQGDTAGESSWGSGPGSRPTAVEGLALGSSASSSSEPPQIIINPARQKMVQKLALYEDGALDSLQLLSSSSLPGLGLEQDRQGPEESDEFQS
> 5 µM

Kindly state the measured IC50 obtained for Cn1cc(-c2cccc(-c3ncc(-c4ccn(C)n4)c(NC4CCC4)n3)c2)cn1 [Example 27] with IRAK1 (His-TEV-IRAK1 (194-712)) (Homo sapiens (Human)).
1 to 5 µM

Short answer please: IC50, IRAK1 (His-TEV-IRAK1 (194-712)) (Homo sapiens (Human)), entry Cn1cc(-c2cccc(-c3ncc(-c4cnn(C)c4)c(N[C@@H]4CCCC[C@H](O)[C@@H]4O)n3)c2)cn1 [Example 289]
> 5 µM

Next:
Lookup: IC50 / IRAK1 (His-TEV-IRAK1 (194-712)) (Homo sapiens (Human)) / Cn1cc(-c2cccc(-c3ncc(-c4cnn(C)c4)c(NC45CC(CNS(C)(=O)=O)(C4)C5)n3)c2)cn1 [Example 245]
< 0.1 µM

# returns recorded IC50 (system: IRAK1 (His-TEV-IRAK1 (194-712)) (Homo sapiens (Human))) for Cn1cc(-c2cccc(-c3ncc(-c4ccn(C)n4)c(NCCCN4CCCC4=O)n3)c2)cn1 [Example 72]
> 5 µM

I'm curious: which IC50 was measured for Cn1cc(-c2cccc(-c3ncc(-c4ccn(C)n4)c(NCC4CNCCO4)n3)c2)cn1 (stereo not drawn) [Example 115] tested on IRAK1 (His-TEV-IRAK1 (194-712)) (Homo sapiens (Human))?
> 5 µM

State its IC50 on IRAK1 (His-TEV-IRAK1 (194-712)) (Homo sapiens (Human)): Cn1cc(-c2cccc(-c3ncc(-c4cnn(C)c4)c(N[C@@H]4CNC[C@H]4O)n3)c2)cn1 (racemic) [Example 113]
0.1 to 1 µM

Return IC50 measured with IRAK1 (His-TEV-IRAK1 (194-712)) (Homo sapiens (Human)) given this molecule: Cn1cc(-c2cccc(-c3ncc(-c4cnn(C)c4)c(N4CCC(CN)C4)n3)c2)cn1 (stereo not drawn) [Example 264]
> 5 µM

Lookup: IC50 / IRAK1 (His-TEV-IRAK1 (194-712)) (Homo sapiens (Human)) / Cn1cc(-c2cccc(-c3ncc(-c4cnn(C)c4)c(N4CC[C@@H](NS(C)(=O)=O)C4)n3)c2)cn1 [Example 247]
1 to 5 µM

State its IC50 on IRAK1 (His-TEV-IRAK1 (194-712)) (Homo sapiens (Human)): Cc1nnc(-c2cnc(-c3cccc(-c4cnn(C)c4)c3)nc2NC2CCCNC2)s1 (stereo not drawn) [Example 17, Hydrochloride]
> 5 µM

meta.source: patent US9790221B2
